Test System: Monoacylglycerol lipase ABHD6 (Mus musculus) (UniProt Q8R2Y0)
Sequence (whole entry): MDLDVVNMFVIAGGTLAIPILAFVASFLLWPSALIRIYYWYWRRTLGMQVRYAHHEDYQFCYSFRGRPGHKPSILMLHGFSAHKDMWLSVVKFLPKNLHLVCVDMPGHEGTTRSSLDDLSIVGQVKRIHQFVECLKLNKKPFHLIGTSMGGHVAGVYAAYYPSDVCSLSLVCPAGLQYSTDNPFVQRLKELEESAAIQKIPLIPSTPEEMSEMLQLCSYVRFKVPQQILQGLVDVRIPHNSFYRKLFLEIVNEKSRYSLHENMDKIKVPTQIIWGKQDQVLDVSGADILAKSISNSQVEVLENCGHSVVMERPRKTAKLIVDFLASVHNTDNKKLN
Test Summary: Inhibition of ABHD6 in FP-rhodamine-labelled mouse brain membrane at 10 nM preincubated for 30 mins followed by FP-rhodamine labelling measured after 30 mins by gel-based competitive ABPP assay
Assay type: tissue-based
Result Type: inhibition (%)

Below: 3 compounds and their reported inhibition.
O=C(N1CCCCC1c1ccccc1)n1cc(-c2ccc(-c3ccccc3CO)cc2)nn1 (racemic) = 98
O=C(N1CCCCC1Cc1ccccc1)n1cc(-c2ccc(-c3cccc(CO)c3)cc2)nn1 (racemic) = 91
COc1ccc(-c2ccc(-c3cn(C(=O)N4CCCCC4c4ccccc4)nn3)cc2)cc1 (racemic) = 30

I. O=C(c1ccc(-c2ccc(-c3cn(C(=O)N4CCCCC4c4ccccc4)nn3)cc2)cc1)N1CCCCC1 (racemic)
II. NC(=O)c1ccc(-c2ccc(-c3cn(C(=O)N4CCCCC4c4ccccc4)nn3)cc2)cc1 (racemic)
[Q] # query: argmin of inhibition over I and II Answer = label.
[A] II
(II: 27%, I: 94%)

----------
Test System: Monoacylglycerol lipase ABHD6 (Mus musculus)
Sequence (whole entry): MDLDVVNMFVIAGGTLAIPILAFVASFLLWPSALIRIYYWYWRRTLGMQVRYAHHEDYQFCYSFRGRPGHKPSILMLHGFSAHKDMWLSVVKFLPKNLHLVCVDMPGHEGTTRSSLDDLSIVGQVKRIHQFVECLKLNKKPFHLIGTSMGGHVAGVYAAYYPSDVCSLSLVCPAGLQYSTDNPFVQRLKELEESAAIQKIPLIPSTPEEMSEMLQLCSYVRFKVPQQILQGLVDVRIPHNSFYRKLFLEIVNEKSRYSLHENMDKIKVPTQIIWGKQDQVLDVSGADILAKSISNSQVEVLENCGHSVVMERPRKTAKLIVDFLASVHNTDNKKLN
Test Summary: Inhibition of ABHD6 in FP-rhodamine-labelled mouse brain membrane at 10 nM preincubated for 30 mins followed by FP-rhodamine labelling measured after 30 mins by gel-based competitive ABPP assay
Type: tissue-based
Result Type: inhibition (%)

O=C(O)c1cccc(-c2ccc(-c3cn(C(=O)N4CCCCC4CCc4ccccc4)nn3)cc2)c1 (racemic) = 94
COc1ccccc1-c1ccc(-c2cn(C(=O)N3CCCCC3c3ccccc3)nn2)cc1 (racemic) = 82
COc1ccccc1-c1ccc(-c2cn(C(=O)N3CCCCC3Cc3ccccc3)nn2)cc1 (racemic) = 89
